- measured target: hT2R54 (Homo sapiens)
- Construct: expressed in transfected cells; it overexpresses a promiscuous G protein
- Sequence (P59534 whole entry): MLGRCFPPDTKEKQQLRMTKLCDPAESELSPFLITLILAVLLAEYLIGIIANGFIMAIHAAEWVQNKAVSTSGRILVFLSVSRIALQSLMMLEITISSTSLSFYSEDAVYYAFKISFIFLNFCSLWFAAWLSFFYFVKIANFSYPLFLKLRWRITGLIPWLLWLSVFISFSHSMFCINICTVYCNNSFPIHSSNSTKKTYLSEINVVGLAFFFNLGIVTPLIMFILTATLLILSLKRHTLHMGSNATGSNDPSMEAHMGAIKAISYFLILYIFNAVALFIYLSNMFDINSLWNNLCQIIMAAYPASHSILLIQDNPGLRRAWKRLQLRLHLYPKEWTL
- protocol text: Cell-based assay for measuring hT2R54 inhibition (FLIPR calcium, Fluo4AM, acetaminophen as bitter agonist)
- condition summary: Table 8; read-out: hT2R54 IC50
- Protocol: Cells stably expressing hT2R54 and a promiscuous G protein were seeded in 384 well plates 24 hours prior to the experiment. […] Baseline was recorded for 10 seconds, then 25 μl of […] was added onto 25 μl of cells and resulting changes in fluorescence were monitored over an additional 3 minutes. […] The ability of a test compound that blocks bitter taste elicited through hT2R54 was measured in this assay, as follows. […]
property name: IC50 (µM)

// below: answered compounds
- compound: "CC(=O)c1cc2c(cc1NC(=O)CC1CCN(C(=O)c3cc[nH]n3)CC1)OCO2"
  units label: "µM"
  IC50: 0.15
- compound: "CC(=O)c1cc2c(cc1NC(=O)CC1CCN(C(=O)c3ncn[nH]3)CC1)OCO2"
  units label: "µM"
  IC50: 0.3

(1) CCCC(=O)N1CCCC(CC(=O)Nc2cc3c(cc2C(C)=O)OCO3)C1 (stereo not drawn)
(2) CC(=O)c1cc2c(cc1NC(=O)CC1CCCN(C(=O)c3ccc(O)c(O)c3)C1)OCO2 (stereo not drawn)
(3) COc1cccc(CC(=O)N2CCC(CC(=O)Nc3cc4c(cc3C(C)=O)OCO4)CC2)c1
(4) COC(=O)c1cc2c(cc1NC(=O)CC1CCCN(C(=O)C3CCCO3)C1)OCO2 (stereo not drawn)
(5) COc1cc2c(cc1NC(=O)CC1CCN(C(=O)c3ccc(C)o3)CC1)OCO2
Q: Rank the items in ascending order with respect to IC50. Please respond by ranking the labels in the order requested.
Result: 1, 3, 2, 4, 5
(1: 0.016 µM, 3: 0.38 µM, 2: 1.3 µM, 4: 2.2 µM, 5: 4 µM)
